testTarget: SARS-CoV-2 Receptor Binding Domain (RBD) protein (SARS-CoV-2, UniProt P0DTC2 319-541)
measurementNotes: SPR, scFv captured via anti-V5, RBD as analyte
pKd: −log10 of the molar value.
// label = condition met if pKd is not less than 8, otherwise condition not met

* COVID19_P19_B08 (scFv, V domains shown) VH: EVQLVESGGGLVQPGGSLRLSCAASGFTFSDHYMDWVRQAPGKGLEWVAAIGASGESTYYADSVKGRFTISRDNSKNTLYLQMNSLRAEDTAVYYCVTQRDNSRDYFPLWFHDMDVWGQGTLVTVSS VL: DIVMTQSPLSLPVTPGEPASISCRSSQSLLYSDGDTYLDWYLQKPGQSPQLLIYLGSIRAPGVPDRFSGSGSGTDFTLKISRVEAEDVGVYYCMQSIQTPWTFGGGTKVEIKR | condition not met
* COVID19_P19_C03 (scFv, V domains shown) VH: EVQLVESGGGLVQPGGSLRLSCAASGFTFSNSDMNWVRQAPGKGLEWVSRINGDGSTTGYADSVKGRFTISRDNSKNTLYLQMNSLRAEDTAVYYCVTTGDNSRDYFPHYFHDMDVWGQGTLVTVSS VL: DIVMTQSPLSLPVTPGEPASISCRSSQSLLHSNGDTYLDWYLQKPGQSPQLLIYLGSIRAPGVPDRFSGSGSGTDFTLKISRVEAEDVGVYYCQQSYITPWTFGGGTKVEIKR | condition not met
* COVID19_P07_H01 (scFv, V domains shown) VH: EVQLVESGGGLVQPGGSLRLSCAASGFTFRSYAMHWVRQAPGKGLEWVAVISSDGRNKFYADSVKGRFTISRDNSKNTLYLQMNSLRAEDTAVYYCVTNMDNSRDYFPHYFHDMDVWGQGTLVTVSS VL: DIVMTQSPLSLPVTPGEPASISCRSSQSLLHSNGNNYMDWYLQKPGQSPQLLIYLASQRASGVPDRFSGSGSGTDFTLKISRVEAEDVGVYYCMQALQRPLTFGGGTKVEIKR | condition met
* COVID19_P07_G06 (scFv, V domains shown) VH: EVQLVESGGGLVQPGGSLRLSCAASGFTFSSYAMHWVRQAPGKGLEWVSAIGAGGGTYYADSVKGRFTISRDNSKNTLYLQMNSLRAEDTAVYYCVTNLDNSRDYFPHYFHDMDVWGQGTLVTVSS VL: DIVMTQSPLSLPVTPGEPASISCRSSQSLLHSNGYNYLDWYLQKPGQSPQLLIYGASTRATGVPDRFSGSGSGTDFTLKISRVEAEDVGVYYCMQTLQTPRFGGGTKVEIKR | condition met
